target entity: Recombinant human soluble guanylate cyclase (sGC), alpha 1 / beta 1 subunits, heme-free (Homo sapiens, UniProt Q02108+Q02153)
Construct: histidine tag (C); made in house; host or cells: Sf9 insect cells (baculovirus coinfection)
Sequence (Q02108 whole entry partner): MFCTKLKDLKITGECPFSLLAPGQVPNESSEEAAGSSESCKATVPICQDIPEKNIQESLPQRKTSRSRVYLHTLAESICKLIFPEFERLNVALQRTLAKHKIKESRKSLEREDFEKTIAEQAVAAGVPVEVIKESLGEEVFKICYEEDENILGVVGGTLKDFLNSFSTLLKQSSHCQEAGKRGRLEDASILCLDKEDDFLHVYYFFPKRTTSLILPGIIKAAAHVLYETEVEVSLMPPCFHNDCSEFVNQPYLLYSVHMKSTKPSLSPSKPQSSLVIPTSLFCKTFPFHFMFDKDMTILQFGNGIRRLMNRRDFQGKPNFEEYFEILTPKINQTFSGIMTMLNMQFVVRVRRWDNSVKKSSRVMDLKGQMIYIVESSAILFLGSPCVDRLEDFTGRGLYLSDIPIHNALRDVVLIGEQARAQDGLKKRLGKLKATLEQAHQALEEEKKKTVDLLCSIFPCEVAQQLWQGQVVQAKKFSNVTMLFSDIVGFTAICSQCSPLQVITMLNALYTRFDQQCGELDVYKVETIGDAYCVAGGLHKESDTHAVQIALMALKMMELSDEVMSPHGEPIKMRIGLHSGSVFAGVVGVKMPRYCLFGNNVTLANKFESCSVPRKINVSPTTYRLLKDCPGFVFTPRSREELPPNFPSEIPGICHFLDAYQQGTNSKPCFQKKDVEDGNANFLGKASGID
Sequence (Q02153 whole entry): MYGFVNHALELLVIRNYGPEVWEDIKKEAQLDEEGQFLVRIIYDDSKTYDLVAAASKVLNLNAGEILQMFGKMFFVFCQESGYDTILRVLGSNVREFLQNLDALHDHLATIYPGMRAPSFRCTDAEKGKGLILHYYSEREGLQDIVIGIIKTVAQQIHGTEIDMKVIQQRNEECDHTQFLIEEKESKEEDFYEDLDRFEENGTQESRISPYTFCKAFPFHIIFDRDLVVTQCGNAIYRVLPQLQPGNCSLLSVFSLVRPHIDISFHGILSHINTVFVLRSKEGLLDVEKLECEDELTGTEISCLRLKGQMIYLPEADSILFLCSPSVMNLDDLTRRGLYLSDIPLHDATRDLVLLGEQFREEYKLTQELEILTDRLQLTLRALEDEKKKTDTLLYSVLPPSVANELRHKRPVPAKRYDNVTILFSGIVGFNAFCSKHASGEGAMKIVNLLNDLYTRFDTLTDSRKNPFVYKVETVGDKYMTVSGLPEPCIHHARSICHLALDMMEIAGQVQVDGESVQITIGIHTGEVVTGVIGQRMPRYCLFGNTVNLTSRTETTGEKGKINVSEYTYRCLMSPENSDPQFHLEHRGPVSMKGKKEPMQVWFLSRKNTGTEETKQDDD
protocol notes: Molecular assay: cGMP formation by heme-free recombinant sGC (CisBio cGMP detection kit)
Type: biochemical
settings: 300 pM heme-free sGC, 37° C., 60 min, cGMP readout; read-out: EC50 nM, Activity of Compounds in Molecular Assay
Would you kindly list log10 of EC50 for each of these compounds?
Units before log transform: nM; reported quantity: EC50; transform: log10.

>  <compound>
Cc1cc(CN2CCOCC2)ccc1COc1ccc(C#N)cc1-c1csc(N2CCC(C(=O)O)CC2)n1 [Compound 168]

>  <quantity measured>
log10 of EC50

>  <reported value>
2.86

$$$$

Quick batch: log10 of EC50 for everything below.
1. Cc1ccc(OCc2ccc(CN3CCS(=O)(=O)CC3)cc2C#N)c(-c2csc(N3CCC(C(=O)O)CC3)n2)c1 [Compound 119]
2. Cc1ccc(OCc2ccc(CN3CCOCC3)cc2C)c(-c2csc(N3CCC(C(=O)O)CC3C(F)(F)F)n2)c1 (centres unmarked) [Compound 132]

[1.59, 2.20]
